Target: human ether-à-go-go-related gene (hERG) potassium channel (human, UniProt Q12809);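 note: peak tail current of the secondary pulse compared with the same well before compound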
Sequence (Q12809 whole entry, looked up): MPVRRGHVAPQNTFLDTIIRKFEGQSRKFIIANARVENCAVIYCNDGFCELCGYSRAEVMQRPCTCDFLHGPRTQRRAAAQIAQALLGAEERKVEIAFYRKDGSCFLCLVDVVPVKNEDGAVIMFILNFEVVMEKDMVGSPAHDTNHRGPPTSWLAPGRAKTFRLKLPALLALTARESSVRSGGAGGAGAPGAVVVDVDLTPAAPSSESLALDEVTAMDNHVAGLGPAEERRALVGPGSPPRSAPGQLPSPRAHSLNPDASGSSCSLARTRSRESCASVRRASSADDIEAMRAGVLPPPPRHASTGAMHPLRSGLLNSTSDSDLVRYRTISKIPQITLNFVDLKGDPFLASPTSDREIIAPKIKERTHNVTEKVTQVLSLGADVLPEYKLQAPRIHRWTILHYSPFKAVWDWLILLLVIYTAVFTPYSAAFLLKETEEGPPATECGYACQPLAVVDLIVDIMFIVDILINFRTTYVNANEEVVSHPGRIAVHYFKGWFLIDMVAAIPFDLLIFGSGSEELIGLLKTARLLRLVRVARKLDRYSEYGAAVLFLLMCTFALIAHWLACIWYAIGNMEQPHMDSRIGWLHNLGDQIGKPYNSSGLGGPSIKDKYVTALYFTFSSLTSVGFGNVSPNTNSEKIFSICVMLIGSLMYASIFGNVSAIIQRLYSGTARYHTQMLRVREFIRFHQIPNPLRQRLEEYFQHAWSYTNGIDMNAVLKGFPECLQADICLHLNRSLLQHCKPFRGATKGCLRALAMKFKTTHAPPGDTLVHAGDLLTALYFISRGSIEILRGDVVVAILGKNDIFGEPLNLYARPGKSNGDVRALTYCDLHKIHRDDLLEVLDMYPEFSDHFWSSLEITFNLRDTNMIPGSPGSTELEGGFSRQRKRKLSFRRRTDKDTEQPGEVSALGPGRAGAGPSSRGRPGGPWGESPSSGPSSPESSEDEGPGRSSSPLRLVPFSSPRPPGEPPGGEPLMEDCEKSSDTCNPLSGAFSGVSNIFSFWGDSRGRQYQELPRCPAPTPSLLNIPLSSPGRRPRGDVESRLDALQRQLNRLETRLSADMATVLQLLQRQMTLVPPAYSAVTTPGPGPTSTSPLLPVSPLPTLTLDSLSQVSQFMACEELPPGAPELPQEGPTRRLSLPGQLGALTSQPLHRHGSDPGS
Test: primary screen, population patch clamp on CHO cells stably expressing hERG; higher = less effect of the substance
Hit rate of the full screen: of about 310,000 compounds, about 14,000 (4.5%) showed an effect of 50% or more. The effect is printed as a negative number. The list comes from a sample in which strong results are over-represented; it also holds close analogues and randomly drawn compounds.
A collection of compounds and their measured hERG current change (%, negative = inhibition) at 10uM
Respond numerically; units are % and should not be typed.

Give the value of hERG current change (%, negative = inhibition) at 10uM reported for the following: CCC(C)(C(=O)NC1CCCCC1)N(CC1CCCO1)C(=O)CNC(=O)c1ccccc1 (centres unmarked)
6.13

====

Target: human ether-à-go-go-related gene (hERG) potassium channel (human, UniProt Q12809);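 note: peak tail current of the secondary pulse compared with the same well before compound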
Experiment: primary screen, population patch clamp on CHO cells stably expressing hERG; higher = less effect of the substance
Description: Briefly, Chinese hamster ovary (CHO) cells stably expressing the hERG channel were dislodged from tissue culture flasks and dispensed into PPC plates. […] During the recording, background leak currents were estimated by a 100 ms step to -80 mV from an initial holding potential of -70 mV and subtracted from the subsequent current measurement. The campaign was conducted in two phases using slight differences in recording protocol. […]
In all, about 310,000 compounds went through this assay and about 14,000 (4.5%) showed an effect of 50% or more. Effects have a minus sign here. For the sample, strong results were picked, then their nearest neighbours and some compounds at random.
# reported hERG current change (%, negative = inhibition) at 10uM; entries follow
Give just the number in %; leave the unit off.

In the examples that follow, each entry is paired with its recorded hERG current change (%, negative = inhibition) at 10uM.
O=c1cc(O)c2c(=O)n(-c3ccccc3)c3c(c2o1)CCCCC3: -0.822
COc1ccc(CCC(=O)NCc2cn3ccccc3n2)cc1: -2.46
Cc1ccn2cc(CNC(=O)c3ccc(Br)o3)nc2c1: -38.6

Identify the reported hERG current change (%, negative = inhibition) at 10uM for the following entry. O=C(CN1CCOCC1)Nc1ccccc1
13.8

# return recorded hERG current change (%, negative = inhibition) at 10uM for entry CC(=NCCCn1ccnc1)C1=C(O)c2ccccc2C1=O
-68

Fill in hERG current change (%, negative = inhibition) at 10uM for record C=CCC(=O)OCCCCCCOc1ccc(C(=O)O)cc1
-3.87

Return hERG current change (%, negative = inhibition) at 10uM (reported value) for this compound: COCCCN1CN=C(NS(=O)(=O)c2ccc(C)cc2)NC1
13.3

Specify reported hERG current change (%, negative = inhibition) at 10uM for the compound shown: Cc1ccc(C)c(N2CCN(c3ccncc3N)CC2)c1
-47.8

Give the reported value of hERG current change (%, negative = inhibition) at 10uM for this record: CCCN1C(=O)/C(=c2\sc3nc(=O)c(Cc4ccc(C)cc4)nn3c2=O)c2ccccc21
21.2

Assign hERG current change (%, negative = inhibition) at 10uM to the following record: COc1ccc(NC(=O)CN2CCN(C(=O)N3CCOCC3)CC2)cc1
-14.2

Return hERG current change (%, negative = inhibition) at 10uM for the following compound: O=C1C(C=NCCCn2ccnc2)=C(O)c2ccccc21
-8.86

Name the recorded hERG current change (%, negative = inhibition) at 10uM of the item O=C(CN1CCN(C(=O)C2CCCO2)CC1)Nc1ccc(Cl)cc1 (stereo not shown) in your answer.
-40.9

Return reported hERG current change (%, negative = inhibition) at 10uM. Input compound: O=C(CN1CCN(C(=O)C2CCCO2)CC1)Nc1ccc(F)cc1 (stereo not shown)
-66.1

Complete the entry with hERG current change (%, negative = inhibition) at 10uM for Cc1oc2c(c(=O)c1C)C(=O)CC(c1ccccc1)C2 (stereo not shown)
-23.7

In one line, give reported hERG current change (%, negative = inhibition) at 10uM of the entry O=C(CN1C(=O)S/C(=C\c2cccc(Cl)c2)C1=O)NC1C=CS(=O)(=O)C1 (stereo not shown) .
18.1

Return value of hERG current change (%, negative = inhibition) at 10uM for input COc1ccc(CCC(=O)NCc2cn3ccc(C)cc3n2)cc1 , no commentary.
-52

Reference for the values: paper PMC4336329
